System: P. falciparum 3D7 trophozoites
assay-text: Metabolomic fingerprint profiling LC-MS
Type: cell-based, Plasmodium falciparum
applied-conditions: metabolite FAD, S2 Table Metabolomics
measured-attribute: FAD

1) COc1ccccc1CNC(=O)CCn1c(=O)[nH]c2ccsc2c1=O :: 0.05372
2) COc1ccc(C2=C(c3ccc(OC)cc3)C3(c4ccccc4)C(=O)C2(c2ccccc2)C2C(=O)N(c4ccc(C)cc4)C(=O)C23)cc1 (stereo not drawn) :: 0.1013
3) Cc1ccc(-c2cc3nc4c(c(O)n3n2)CCCC4)cc1 :: 0.1332
4) CCCN(CCC)CC(O)COc1ccccc1C(=O)Nc1ccccc1 (stereo not drawn) :: 0.7675
5) COc1ccccc1N=C1C(=O)c2ccccc2C(O)=C1N1CCCCC1 :: -0.04298
6) CCn1c(CN2CCN(Cc3ccccc3)CC2)nc2cc(NC(=O)c3cccs3)ccc21 :: 0.2064
7) COc1ccccc1CNC(=O)CCn1c(=O)[nH]c2ccccc2c1=O :: 0.06654
8) Oc1ccccc1CNCC12CC3CC(CC(C3)C1)C2 :: -0.02526
9) CCc1c(C)c(=N)c2ccccc2n1C :: -0.07776
10) CCOC(=O)c1cn(CC)c2cc(N3CCCCC3)c(F)cc2c1=O :: 0.7349
11) O=C1C(O)=C([C@H]2CC[C@H](c3ccc(Cl)cc3)CC2)C(=O)c2ccccc21 [Atovaquone, reference compound] :: 0.1027
12) CCCCCC(=O)N1c2ccccc2N=C2CC(c3ccc(OC)c(OC)c3)CC(O)=C2C1c1ccc(C(F)(F)F)cc1 (stereo not drawn) :: -0.3185
13) O=C(O)C1Cc2c([nH]c3ccccc23)C(c2ccc(Cl)cc2Cl)N1 (stereo not drawn) :: 0.2533
14) COc1ccc(C(C)=O)cc1N1C(=O)C2C(C1=O)C1(c3ccccc3)C(=O)C2(c2ccccc2)C(c2ccc(C)cc2)=C1c1ccc(C)cc1 (stereo not drawn) :: 0.07228
15) COc1cc(OC)c(N(C)C(=O)c2cc3c(s2)-c2ccccc2S(=O)(=O)C3)cc1Cl :: -1.0601
16) Cc1cccc(Nc2nc(N)c3ccccc3n2)c1 :: -0.04154
17) COc1ccc(-c2nc(NC(=O)CS(=O)(=O)c3ccc(F)cc3)sc2C)cc1 :: -0.2366
18) CCC1(C)CC(CCNCc2ccccc2O)(c2ccc(C)cc2)CCO1 (stereo not drawn) :: -0.02006

----------
System: P. falciparum 3D7 trophozoites
assay-text: Metabolomic fingerprint profiling LC-MS
Format: cell-based, Plasmodium falciparum
applied-conditions: metabolite ribose-phosphate, S2 Table Metabolomics
measured-attribute: ribose-phosphate

1) COc1ccc(Br)cc1C1Nc2ccc3ccccc3c2C2=C1C(=O)CC(c1ccccc1)C2 (centres unmarked) [MMV020885] :: 0.4239
2) Cc1cc(NC(=O)C2c3ccccc3C(=O)N(CC(C)C)C2c2cccs2)no1 (centres unmarked) [MMV006429] :: -0.6145
3) COc1ccccc1CNC(=O)CCn1c(=O)[nH]c2ccsc2c1=O [MMV019066] :: -0.1454
4) Cc1cc(C)cc(Nc2cc(C)nc3nc(C(F)(F)F)nn23)c1 [MMV011259] :: -0.4441
5) Cc1cc(Nc2ccc(Cl)cc2)n2nc(C(F)(F)F)nc2n1 [MMV011256] :: -0.1179

----------
Reported lactate values for a set of compounds
Tested on: P. falciparum 3D7 trophozoites
assay-text: Metabolomic fingerprint profiling LC-MS
Assay type: cell-based, Plasmodium falciparum
applied-conditions: metabolite level change after treatment
measured-attribute: lactate

1) COc1ccc(Br)cc1C1Nc2ccc3ccccc3c2C2=C1C(=O)CC(c1ccccc1)C2 (stereo not drawn) [MMV020885] :: 0.1283
2) CCCc1cc(O)c2c3c(c(=O)oc2c1)CN(C)CC3 [MMV665841] :: -0.3481
3) c1ccc(Cn2c(N=Nc3c(Nc4ccccc4)ccc4ccccc34)nc3ccccc32)cc1 [MMV666023] :: -0.7178
4) CCOC(=O)c1cn(CC)c2cc(N3CCCCC3)c(F)cc2c1=O [MMV665827] :: 1.255
5) O=[N+]([O-])c1ccc(C=NNc2nc3ccccc3[nH]2)cc1 [MMV666607] :: -0.3072
6) Cc1cc(C)c2c(c1)OCN(Cc1ccccc1Cl)C2 [MMV006558] :: -0.7314
7) COc1ccccc1CNC(=O)CCn1c(=O)[nH]c2ccsc2c1=O [MMV019066] :: -0.3675
8) CCOc1cc2c(cc1OCC)C(c1cc(OC)c(O)cc1Cl)NCC2 (stereo not drawn) [MMV008956] :: 1.983
9) O=C(O)C1Cc2c([nH]c3ccccc23)C(c2ccc(Cl)cc2Cl)N1 (stereo not drawn) [MMV008138] :: -0.4969

----------
Tested on: P. falciparum 3D7 trophozoites
assay-text: Metabolomic fingerprint profiling LC-MS
Format: cell-based, Plasmodium falciparum
applied-conditions: metabolite xanthosine; S2 Table Metabolomics, change in metabolite level after compound treatment
measured-attribute: xanthosine

1) Cc1cc(Nc2ccc3ccccc3c2)n2ncnc2n1 :: -0.974
2) Cc1cccc(Nc2nc(N)c3ccccc3n2)c1 :: -0.9126
3) c1ccc(Cn2c(N=Nc3c(Nc4ccccc4)ccc4ccccc34)nc3ccccc32)cc1 :: -0.07995
4) CCCCCC(=O)N1c2ccccc2N=C2CC(c3ccc(OC)c(OC)c3)CC(O)=C2C1c1ccc(C(F)(F)F)cc1 (stereo not drawn) :: 0.125
5) COc1ccccc1CNC(=O)CCn1c(=O)[nH]c2ccccc2c1=O :: -0.4685
6) CCOC(=O)c1cnc2c(C)cc(C)cc2c1Nc1ccc(OC)c(OC)c1 :: 0.1462
7) CNCCCNc1ccnc2cc(Cl)ccc12 :: -0.8962
8) Cc1ccc(Nc2nc(-c3ccccn3)cs2)cc1 :: -0.2403
9) CCOC(=O)c1c(C)n(-c2ccc(Cl)cc2)c2ccc(OC(=O)C=Cc3ccccc3)cc12 :: 0.13
10) COc1ccc(-c2nc3cc(Cc4ccc5[nH]c(-c6ccc(OC)cc6)nc5c4)ccc3[nH]2)cc1 :: 0.2641
11) COc1ccc(C(C)=O)cc1N1C(=O)C2C(C1=O)C1(c3ccccc3)C(=O)C2(c2ccccc2)C(c2ccc(C)cc2)=C1c1ccc(C)cc1 (stereo not drawn) :: 0.304
12) CCCCCCOC(=O)C1=C(C)NC(=O)NC1c1ccccc1F (stereo not drawn) :: 0.7187
13) CCOc1ccc(-c2nonc2NC(=O)c2cccc(C)c2)cc1OCC :: 0.4761
14) COc1ccc(-c2c(C)nn3c(N)c(C#N)cnc23)cc1OC :: -0.6585
15) COc1cccc(C=Cc2nc(=O)c3ccccc3o2)c1OC :: 0.5199

----------
Test system: P. falciparum
assay-text: EC50 listed in S2 Table Metabolomics (used to set the concentration tested)
Format: cell-based
applied-conditions: Plasmodium falciparum; EC50 used for Factor_XEC50 in metabolomics; read-out: EC50_nM
pEC50: −log10 of the molar value.
measured-attribute: pEC50

1. Cc1cc(C)c2c(c1)OCN(Cc1ccccc1Cl)C2 :: 6.57
2. COc1ccc(-n2ccnc2SCC(=O)Nc2cc(C)ccc2C)c(OC)c1 :: 6.77
3. CN(C)CCCNc1c2ccccc2nc2ccccc12 :: 6.63
4. Cc1cc(Nc2ccc3ccccc3c2)n2ncnc2n1 :: 6.62
5. CCN(CC)CCNc1ncnc2c1[nH]c1ccc(Cl)cc12 :: 6.39
6. CC(C)(C)c1ccc(O)c(CNC2CCCCC2)c1 :: 6.79

----------
Reported Cmax values for a set of compounds
assay-text: Mouse oral PK single dose
Assay type: in vivo
applied-conditions: male, CD-1, mouse, plasma, 140 umol/kg; 140 μmol/kg oral
measured-attribute: Cmax

1) CCOC(=O)c1cnc2ccc(OC)cc2c1NCc1ccccc1 :: < 1000 nM
2) CCN1CCN(c2cc(C)c3cc(NC(=O)c4ccc(OC)c(OC)c4)ccc3n2)CC1 :: > 1000 nM
3) COc1ccc(C(=O)Nc2ccc3nc(N4CCCCC4)cc(C)c3c2)cc1OC :: > 1000 nM
4) COc1cc2cc(C(=O)Nc3ccccc3)c(N)nc2cc1OC :: > 1000 nM
5) CCN(CC)c1cc(C)c2cc(NC(=O)c3cccc(OC)c3)ccc2n1 :: > 1000 nM

----------
test-system: M3 receptor (Homo sapiens)
Sequence (P20309 whole entry): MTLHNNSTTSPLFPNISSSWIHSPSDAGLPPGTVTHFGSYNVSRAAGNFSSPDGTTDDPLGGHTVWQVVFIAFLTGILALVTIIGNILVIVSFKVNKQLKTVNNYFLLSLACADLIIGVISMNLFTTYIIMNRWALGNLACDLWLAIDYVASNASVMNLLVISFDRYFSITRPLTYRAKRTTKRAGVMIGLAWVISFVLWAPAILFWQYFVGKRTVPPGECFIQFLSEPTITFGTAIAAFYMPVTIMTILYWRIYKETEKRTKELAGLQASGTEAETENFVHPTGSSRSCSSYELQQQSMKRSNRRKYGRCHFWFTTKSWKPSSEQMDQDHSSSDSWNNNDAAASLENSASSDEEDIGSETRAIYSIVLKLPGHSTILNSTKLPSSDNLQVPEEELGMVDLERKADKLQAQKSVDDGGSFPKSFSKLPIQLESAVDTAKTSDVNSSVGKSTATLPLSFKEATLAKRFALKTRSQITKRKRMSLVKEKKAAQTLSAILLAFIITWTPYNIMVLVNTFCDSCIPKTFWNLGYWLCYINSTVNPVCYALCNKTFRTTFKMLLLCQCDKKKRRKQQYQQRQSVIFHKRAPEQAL
measured-attribute: Ki (nM)

1) O[Si](CCCN1CCCCC1)(c1ccc(F)cc1)C1CCCCC1 (stereo not shown) :: 34.4

----------
System: P. falciparum 3D7 trophozoites
assay-text: Metabolomic fingerprint profiling LC-MS
Type: cell-based, Plasmodium falciparum
applied-conditions: metabolite cytidine, S2 Table Metabolomics
The threshold is -0.1. Values of cytidine beneath it are tagged Met; values meeting or exceeding it are tagged Not met.

1) CCOC(=O)c1cnc2c(C)cc(C)cc2c1Nc1ccc(OC)c(OC)c1 [MMV008294] :: Not met
2) Cc1ccc(N2C(=O)C3C(C2=O)C2(c4ccccc4)C(=O)C3(c3ccccc3)C(c3ccccc3)=C2c2ccccc2)cc1 (stereo not drawn) [MMV666062] :: Met
3) Cc1cc(C)cc(Nc2cc(C)nc3nc(C(F)(F)F)nn23)c1 [MMV011259] :: Not met
4) COc1cccc(NC(=O)[C@H](C(C)C)n2c(=O)[nH]c3ccccc3c2=O)c1 [MMV665878] :: Not met
5) COc1ccc2c(=O)cc(C(Cl)(Cl)Cl)oc2c1 [MMV665820] :: Met
6) Cc1cc(C)c2c(c1)OCN(Cc1ccccc1Cl)C2 [MMV006558] :: Not met
7) CCOC(=O)c1cnc2ccc(CC)cc2c1O [MMV007116] :: Not met
8) CSc1ccccc1C(=O)Nc1nc(-c2ccccn2)cs1 [MMV001246] :: Met
9) CCc1c(C)c(=N)c2ccccc2n1C [MMV006278] :: Met
